- System Tested: Protein farnesyltransferase (Bos taurus, UniProt P29702+P49355)
- Assay Comment: Inhibition of Farnesyltransferase catalyzed incorporation of [3H]-FPP into recombinant Ras-CVIM.
Decision: IC50 beneath 6 nM gives t; IC50 meeting or exceeding 6 nM gives f.

For orientation, consider the following solved cases.
COc1cc(C(F)(F)F)ccc1-c1ccc(Cn2cncc2CN2CCN(c3cccc(Cl)c3)C(=O)C2)cc1 f
O=C1CN(Cc2cncn2Cc2ccc(-c3ccc(Cl)cc3)cc2)CCN1c1cccc(Cl)c1 f
O=C1CN(Cc2cncn2Cc2ccc(-c3cc(Cl)cc(Cl)c3)cc2)CCN1c1cccc(Cl)c1 f
N#Cc1ccc2cc1Oc1ccc3cccc(c3c1)N1CCN(CCc3cncn3C2)CC1=O t
CCCCc1ccc2cc1Oc1ccc3cccc(c3c1)N1CCN(CCc3cncn3C2)CC1=O f

Task: Find out if reported IC50 for O=C1CN2CCc3cncn3Cc3ccc(Br)c(c3)Oc3ccc4cccc(c4c3)N1CC2 is less than 6 nM
Output: t

Task: Please do the same for O=C1CN(Cc2cncn2Cc2ccc(-c3cccc(C(F)(F)F)c3)cc2)CCN1c1cccc(Cl)c1 as well.
Output: f

Task: Please do the same for O=C1CN2CCc3cncn3Cc3cccc(c3)Oc3ccc4cccc(c4c3)N1CC2 as well.
Output: f

Task: Please do the same for O=C1CN(Cc2cncn2Cc2ccc(-c3ccccc3)cc2)CCN1c1cccc(Cl)c1 as well.
Output: f

Task: Please do the same for O=C1CN2CCc3cncn3Cc3ccc(CCCCC(F)(F)F)c(c3)Oc3ccc4cccc(c4c3)N1CC2 as well.
Output: t

---

- System Tested: Protein farnesyltransferase (Bos taurus, UniProt P29702+P49355)
- Assay Comment: Inhibition of Farnesyltransferase catalyzed incorporation of [3H]-FPP into recombinant Ras-CVIM.
Measured Endpoint: IC50 (nM)
Reply with just the number (in nM).

Task: Query (molecule): COc1cc(Cn2cncc2CN2CCN(c3cccc(Cl)c3)C(=O)C2)ccc1-c1ccc(C(F)(F)F)cc1 ; field requested: IC50
Output: 1.6

Task: Please do the same for N#Cc1ccc(Cn2cncc2CN2CCN(c3cccc(Cl)c3)C(=O)C2)cc1 [L-778123 FREE BASE] as well.
Output: 2

Task: Please do the same for O=C1CN(Cc2cncn2Cc2ccc(-c3ccc(C(F)(F)F)cc3)nc2)CCN1c1cccc(Cl)c1 as well.
Output: 14
